System: SK-MEL-28
Assay: NCI tumour cell line growth inhibition, 48 h
Calls of active or inactive are those of the source. No stated cut-off is given here; in the data, active = GI50 up to about 1.1 µM and inactive = higher.
Field 'call' accepts yes (1) (active), no (0) (inactive)

Hi, do you know how COc1ccc(COC2CC(OC)OC(C)C2OC(=O)c2ccccc2)cc1 (stereo not given) came out in this test? no (0)

Outcome? "Cc1csc2nc(-c3ccc([N+](=O)[O-])cc3)c(/C=N/N=C(N)N)n12" no (0)

Hi, do you know how COC(=O)/C=C\[C@@H]1[C@H](C)N1S(=O)(=O)c1ccc(C)cc1 (stereo not given in full) came out in this test? no (0)

More entries:
Tell me the assay call for CCCCC(C)C1CCC2(C)C=CC(=O)C(C)=C2C1O (stereo not given) please. no (0)

Can you look up the reported call for "ClCCN(CCCl)c1ccc(/C=N/Nc2ccnc3ccccc23)cc1" for me? no (0)

Could you please tell me the result logged for "CC(C)c1cc(C(F)(F)F)nc(NNc2nc(C(C)C)cc(C(F)(F)F)n2)n1" in this assay? no (0)
